protocol_description: Inhibition of 6-His tagged-G4SG4 fused ZIKV NS2B (49 to 95 residues) R95A mutant-NS3 (1 to 170 residue) R29G mutant expressed in Escherichia coli BL21 (DE3) using Bz-Nle-K-RR-AMC substrate preincubated for 10 mins followed by substrate addition and measured after 30 mins by fluorescence assay
Parameters: species or system Zika virus
pIC50: −log10 of the molar value.
So basically: pIC50 at 5 or higher? That is true. Lower than 5? That is false.

Reference set (4 entries):
{"item_smiles": "N=C(N)NCCC[C@H](NC(=O)[C@H](CCCCN)NC(=O)[C@H](CCCCN)NC(=O)Cc1nccs1)C(N)=O", "assigned_category": "false"}
{"item_smiles": "NCCCC[C@H](NC(=O)Cc1ccccc1)C(=O)N[C@@H](CCCCN)C(=O)N[C@H](C(=O)NCc1ncco1)c1ccc(OCc2ccc(C(F)(F)F)cc2)cc1", "assigned_category": "true"}
{"item_smiles": "N=C(N)NCCC[C@H](NC(=O)[C@H](CCCCN)NC(=O)[C@H](CCCCN)NC(=O)Cc1ccccc1)C(=O)NCC1CCCCC1", "assigned_category": "true"}
{"item_smiles": "NCCCC[C@H](NC(=O)Cc1ccccc1)C(=O)N[C@@H](CCCCN)C(=O)N[C@@H](C(N)=O)c1ccccc1", "assigned_category": "false"}

Turning now to a further molecule:
Assess whether reported pIC50 for `N=C(N)NCCC[C@H](NC(=O)c1cccs1)C(=O)N[C@@H](CCCCN)C(=O)N[C@H](C(N)=O)c1ccc(OCCN2CCCCC2)cc1` sits at 5 or higher.
true

---

IC50 reference
protocol_description: Inhibition of 6-His tagged-G4SG4 fused ZIKV NS2B (49 to 95 residues) R95A mutant-NS3 (1 to 170 residue) R29G mutant expressed in Escherichia coli BL21 (DE3) using Bz-Nle-K-RR-AMC substrate preincubated for 10 mins followed by substrate addition and measured after 30 mins by fluorescence assay
Parameters: species or system Zika virus
Non-standard residues stand in square brackets, D forms with d. Residues, ends and D or L forms follow the SMILES beside them. *: point of attachment. AEF = NCCOc1ccc(C[C@H](N)C(=O)O)cc1; Orn = NCCC[C@H](N)C(=O)O; PhAc = O=C(Cc1ccccc1)*
Only the number, expressed in nM, is required.

{"molecule": "NCCCC[C@H](NC(=O)Cc1ccc(Cl)c(Cl)c1)C(=O)N[C@@H](CCCCN)C(=O)N[C@H](C(=O)NCc1ccc(OCc2ccc(C(F)(F)F)cc2)cc1)c1ccccc1", "observed_property": "IC50", "readout_value": 170}
{"molecule": "N=C(N)NCCC[C@H](NC(=O)[C@H](CCCCN)NC(=O)[C@H](CCCCN)NC(=O)Cc1ccccc1)C(=O)NCc1cccnc1", "observed_property": "IC50", "readout_value": 10400}
{"molecule": "NCCCC[C@H](NC(=O)Cc1ccccc1)C(=O)N[C@@H](CCCCN)C(=O)N[C@@H](C(=O)NCc1ccccc1)c1ccccc1", "observed_property": "IC50", "readout_value": 1900}
{"molecule": "NCCCC[C@H](NC(=O)Oc1ccccc1)C(=O)N[C@@H](CCCCN)C(=O)N[C@H](C(=O)NCc1ccccc1)c1ccc(OCc2ccc(C(F)(F)F)cc2)cc1", "observed_property": "IC50", "readout_value": 840}
{"molecule": "N=C(N)NCCC[C@H](NC(=O)c1cccs1)C(=O)N[C@@H](CCCCN)C(=O)N[C@H](C(N)=O)c1ccc(OCc2ccc(C(F)(F)F)cc2)cc1", "observed_property": "IC50", "readout_value": 2500}

Determine from records and report IC50 for `N=C(N)NCCC[C@H](NC(=O)[C@H](CC1CCNCC1)NC(=O)[C@H](CCCCN)NC(=O)Cc1ccccc1)C(N)=O`
12200

Using known records, supply IC50 for N=C(N)NCCC[C@H](NC(=O)[C@H](CCCN)NC(=O)[C@H](CCCCN)NC(=O)Cc1ccccc1)C(N)=O (PhAc-Lys-[Orn]-Arg-NH2)
3900

Please report the measured IC50 for `COc1ccc(CNC(=O)[C@@H](NC(=O)[C@H](CCCCN)NC(=O)[C@H](CCCCN)NC(=O)Cc2ccccc2)c2ccc(OCc3ccc(C(F)(F)F)cc3)cc2)cc1`
130

Kindly indicate its recorded IC50. Item: N=C(N)NCCC[C@H](NC(=O)[C@H](CCCCN)NC(=O)[C@H](CCCCN)NC(=O)Cc1ccccc1)C(=O)O (PhAc-Lys-Lys-Arg-OH)
41000

For CC(=O)N[C@@H](CCCCN)C(=O)N[C@@H](CCCCN)C(=O)N[C@@H](CCCNC(=N)N)C(N)=O (Ac-Lys-Lys-Arg-NH2) , write its IC50.
8400

// Input: `NCCCC[C@H](NC(=O)Nc1ccccc1)C(=O)N[C@@H](CCCCN)C(=O)N[C@H](C(=O)NCc1ccccc1)c1ccc(OCc2ccc(C(F)(F)F)cc2)cc1` . Output its IC50 only.
160

Quote IC50 reported for `NCCCC[C@H](NC(=O)Cc1ccccc1)C(=O)N[C@@H](CCCCN)C(=O)N[C@H](C(=O)NCc1ccccc1)c1ccccc1` please.
550

Please report IC50 for the following molecule: `N=C(N)NCCC[C@H](NC(=O)[C@H](CCCCN)NC(=O)[C@H](CCCCN)NC(=O)Cc1ccc(Cl)c(Cl)c1)C(N)=O`
1230

Tell us which IC50 value is on record for N=C(N)NCCC[C@H](NC(=O)[C@H](CCCCN)NC(=O)[C@H](Cc1ccc(OCCN)cc1)NC(=O)Cc1ccccc1)C(N)=O (PhAc-[AEF]-Lys-Arg-NH2)
30700
